Tested on: TNK2
Details: concentration: 1 μM, replicates: in singlicate; n = 1;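 note: KINOMEscan kinase panel screen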
Recorded measurements of %Inh, one per entry

# compound, %Inh
data = [
    ("Fc1cc(Cl)ccc1Nc1ccnc2cc(-c3ccc(CN4CCCCC4)o3)ccc12", "2%"),
    ("CCCc1ccc(S(=O)(=O)NC2CCN(c3ccnc(Nc4ccc(F)cc4)n3)C2)cc1 (stereo not drawn)", "26%"),
    ("O=c1cc(N2CCOCC2)nc2n(Cc3cccc(Cl)c3Cl)ccn12", "12%"),
    ("Cc1cccc(-c2nc(Nc3ccncc3)c3ccccc3n2)n1", "0%"),
    ("Cc1cccc(-c2nc(-c3ccc(S(C)(=O)=O)cc3)sc2-c2ccnc(NCCc3ccccc3)c2)c1", "0%"),
    ("Cc1cc(NCC(c2ccccc2)c2ccccc2)nc(NCc2ccc(C(F)(F)F)cc2)n1", "0%"),
    ("Cc1c(O)cccc1Nc1ccnc2ccc(C(F)(F)F)cc12.Cl", "17%"),
    ("Cc1cccc(-c2nc(Nc3ccc4[nH]ncc4c3)c3ccccc3n2)n1", "10%"),
    ("Cl.Oc1ccc(-c2nc(-c3ccccc3)[nH]c2-c2ccncc2)cc1", "10%"),
]

###

Recorded measurements of %Inh, one per entry
Test system: ACVR2A
Conditions: concentration: 1 μM, replicates: in singlicate; n = 1

# compound, assay target, %Inh
records = [
    ("O=C(Nc1ccccc1)Nc1cccc(Oc2ccc3nccn3n2)c1", "ACVR2A", "0%"),
    ("Cc1ccc(-c2cc(-c3c[nH]nc3-c3ccccn3)ccn2)cc1 [GW684088]", "ACVR2A", "0%"),
    ("O=C1NC(=O)C(N2CCc3ccccc32)=C1c1ccccc1Cl [SB-373598]", "ACVR2A", "25%"),
    ("O=c1cc(N2CCOCC2)nc2n(Cc3cccc(Cl)c3Cl)ccn12 [GSK2286295]", "ACVR2A", "0%"),
    ("COc1cc(Nc2nccc(N3CCC(NC(=O)Nc4cc(C)ccc4C)C3)n2)cc(OC)c1OC (stereo not drawn) [GSK1379762]", "ACVR2A", "0%"),
    ("COc1ccc(C2=C(Nc3cccc(C(=O)O)c3)C(=O)NC2=O)cc1 [SB-390765]", "ACVR2A", "0%"),
    ("CN1C(=O)C(Nc2ccc(Cl)c(C(=O)O)c2)=C(c2ccc(Cl)cc2)C1=O [SB-404290]", "ACVR2A", "0%"),
    ("COc1ccccc1-c1ccc2c(NC(=O)C3CC3)n[nH]c2n1 [SB-711239]", "ACVR2A", "29%"),
    ("CS(=O)(=O)c1ccc(-c2nc3n(c2-c2ccncc2)CCC3)cc1 [SKF-105942]", "ACVR2A", "0%"),
    ("Cn1ccc2ncnc(Oc3cccc(C(=O)Nc4ccccc4)c3)c21", "ACVR2A", "0%"),
    ("C[C@@H]1CCCCN1c1cc(-c2ccc3c(N)n[nH]c3c2)nc(N)n1 [GSK2258759]", "ACVR2A", "0%"),
    ("Cc1cc(NCC(c2ccccc2)c2ccccc2)nc(NCc2ccc(C(F)(F)F)cc2)n1 [GW497681]", "ACVR2A", "0%"),
    ("COc1cc2nccc(Nc3ccc(NC(=O)c4ccc(C)cc4)c(O)c3)c2cc1OC.Cl [GW440132]", "ACVR2A", "0%"),
    ("CC(C)(C)c1ccc(C(=O)Nc2cn3cc(-c4cccnc4)ccc3n2)cc1", "ACVR2A", "0%"),
    ("CCn1c(-c2cccnc2O)nc2cnccc21 [SB-736715]", "ACVR2A", "0%"),
    ("CC1=C(C(=O)Nc2cc3cn[nH]c3cc2F)C(c2ccc(C(F)(F)F)cc2)CC(=O)N1 (stereo not drawn) [GSK429286]", "ACVR2A", "83%"),
    ("Cc1ccccc1-n1cnc2c(N)ncnc21 [SKF-97510]", "ACVR2A", "0%"),
    ("Cc1c(O)cccc1Nc1ccnc2ccc(C(F)(F)F)cc12.Cl [GW466413]", "ACVR2A", "13%"),
]

###

Test system: ERBB2
Details: concentration: 1 μM, replicates: in singlicate; n = 1
Recorded measurements of %Inh, one per entry

# molecule, assay target, display unit, %Inh
records = [
    ("O=C(O)COc1ncnc2cc(-c3ccc4[nH]ncc4c3)sc12", "ERBB2", "%", 0),
    ("O=C(Nc1n[nH]c2nc(-c3nccs3)c(Br)cc12)C1CCCC1 [SB-742609]", "ERBB2", "%", 0),
    ("O=C(Nc1n[nH]c2nc(-c3nccs3)c(Br)cc12)C1CC1 [SB-742251]", "ERBB2", "%", 2),
    ("Cc1cccc(-c2nc(Nc3cccc(C(N)=O)c3)c3ccccc3n2)n1 [GW876019]", "ERBB2", "%", 23),
    ("Cc1cc(-c2ccc3c(c2)CC[C@@H](N[C@@H](C)c2ccccc2)C3)cnc1N.Cl [GW412617]", "ERBB2", "%", 0),
]

###

System: CDC2L5
Construct: gene CDK13
Conditions: concentration: 1 μM, replicates: in singlicate; n = 1

# compound, assay target, display unit, %Inh
rows = [
    ("COC(=O)c1c(-c2ccccc2)c2cc(C(=O)O)ccc2c(=O)n1Cc1ccccc1", "CDC2L5", "%", 40),
    ("CS(=O)(=O)c1ccc(-c2nc3n(c2-c2ccncc2)CCC3)cc1", "CDC2L5", "%", 0),
    ("COc1cc2nccc(Nc3ccc(NC(=O)c4ccc(C)cc4)c(O)c3)c2cc1OC.Cl", "CDC2L5", "%", 0),
    ("Cc1nnc(-c2ccc3occ(-c4ccc(S(C)=O)cc4)c3c2)[nH]1 (stereo not drawn)", "CDC2L5", "%", 11),
    ("COc1ccc(CNC(=O)NC2CCN(c3ccnc(Nc4cc(OC)c(OC)c(OC)c4)n3)C2)cc1 (stereo not drawn)", "CDC2L5", "%", 0),
    ("O=C(Nc1n[nH]c2nc(-c3nccs3)c(Br)cc12)C1CCCC1", "CDC2L5", "%", 0),
    ("CCn1c(-c2cccnc2O)nc2cnccc21", "CDC2L5", "%", 0),
    ("Cc1cc(N2Cc3ccccc3C2)nc(Nc2ccc(S(=O)(=O)N3CCOCC3)cc2)n1.Cl", "CDC2L5", "%", 0),
    ("COc1cc(Nc2nccc(N3CCC(NC(=O)Nc4cc(C)ccc4C)C3)n2)cc(OC)c1OC (stereo not drawn)", "CDC2L5", "%", 0),
    ("Cc1cccc(-c2nc(-c3ccc(S(C)(=O)=O)cc3)sc2-c2ccnc(NCCc3ccccc3)c2)c1", "CDC2L5", "%", 44),
    ("Cc1c(O)cccc1Nc1ccnc2ccc(C(F)(F)F)cc12.Cl", "CDC2L5", "%", 0),
    ("COc1cc2ncn(-c3cc(OCC4CCCO4)c(C(N)=O)s3)c2cc1OC (stereo not drawn)", "CDC2L5", "%", 0),
    ("CC1=C(C(=O)Nc2cc3cn[nH]c3cc2F)C(c2ccc(C(F)(F)F)cc2)CC(=O)N1 (stereo not drawn)", "CDC2L5", "%", 0),
    ("COc1cc2ncnc(Nc3ccc4nc(-c5ccccc5)[nH]c4c3)c2cc1OC.Cl", "CDC2L5", "%", 0),
    ("COc1ccc(C2=C(Nc3cccc(C(=O)O)c3)C(=O)NC2=O)cc1", "CDC2L5", "%", 8),
    ("Cn1ccc2ncnc(Oc3cccc(C(=O)Nc4ccccc4)c3)c21", "CDC2L5", "%", 0),
    ("COc1ccc2nc(-c3cccc(C)n3)nc(Nc3ccncc3)c2c1", "CDC2L5", "%", 0),
    ("CCCc1ccc(S(=O)(=O)NC2CCN(c3ccnc(Nc4ccc(F)cc4)n3)C2)cc1 (stereo not drawn)", "CDC2L5", "%", 98.6),
    ("COc1ccc(Nc2nccc(-c3cccc(NC(=O)c4cc5cc(F)ccc5[nH]4)c3)n2)cc1", "CDC2L5", "%", 0),
    ("Cl.O=C(Nc1cccc(-c2nn3ncccc3c2-c2ccnc(Nc3cccnc3)n2)c1)c1c(F)cccc1F", "CDC2L5", "%", 0),
    ("Cn1ccc2ncnc(Oc3ccc(NC(=O)Nc4ccccc4)cc3)c21", "CDC2L5", "%", 0),
    ("Cc1ccc(NC(=O)Nc2cc(C(C)(C)C)nn2-c2ccccc2)cc1", "CDC2L5", "%", 0),
    ("CC(=O)Nc1nc2cnc(Nc3cc(NC(=O)c4cccc(CCC#N)c4)ccc3C)nc2s1", "CDC2L5", "%", 36),
    ("CN(C)CCN(C)C(=O)c1cc(-c2ccncc2)c(-c2ccc(Cl)c(O)c2)o1.Cl.Cl", "CDC2L5", "%", 0),
    ("Cl.c1ccc(-c2n[nH]cc2-c2ccnc(-c3ccc(CN4CCOCC4)cc3)c2)nc1", "CDC2L5", "%", 0),
    ("C[C@@H]1CCCCN1c1cc(-c2ccc3c(N)n[nH]c3c2)nc(N)n1", "CDC2L5", "%", 0),
    ("CSc1nn2c(=O)cc(N3CCOCC3)nc2n1Cc1cccc(C(F)(F)F)c1C", "CDC2L5", "%", 0),
    ("O=C(O)COc1ncnc2cc(-c3ccc4[nH]ncc4c3)sc12", "CDC2L5", "%", 5),
    ("CC(C)(C)c1ccc(C(=O)Nc2cn3cc(Cl)ccc3n2)cc1", "CDC2L5", "%", 6),
    ("CC(C)(C)c1ccc(C(=O)Nc2cn3cc(-c4cccnc4)ccc3n2)cc1", "CDC2L5", "%", 0),
    ("CCn1c(-c2ccccn2)nc2cnccc21", "CDC2L5", "%", 100),
    ("COc1ccc(Nc2nccc(NCCNC(=O)Nc3ccccc3F)n2)cc1", "CDC2L5", "%", 0),
    ("O=C(Nc1n[nH]c2nc(-c3nccs3)c(Br)cc12)C1CC1", "CDC2L5", "%", 13),
    ("CN1C(=O)C(Nc2ccc(Cl)c(C(=O)O)c2)=C(c2ccc(Cl)cc2)C1=O", "CDC2L5", "%", 1),
    ("Fc1cc(Cl)ccc1Nc1ccnc2cc(I)ccc12", "CDC2L5", "%", 0),
    ("COc1ccccc1-c1ccc2c(NC(=O)C3CC3)n[nH]c2n1", "CDC2L5", "%", 2),
]
